experiment: Metabolic stability in hepatocytes; type: in vitro ADME, human; settings: 0.5 min
Measurement kind: Remaining Percentages (%)
Please reply with the bare figure in % and do not write the unit itself.

Sample answers from the record:
COc1cc(Nc2c(C#N)cnc3cc(OCCON4CCN(C)CC4)c(OC)cc23)ccc1Cl [14a]; 100.00
COc1cc2c(Nc3cccc(Cl)c3F)c(C#N)cnc2cc1OCCON1CCN(C)CC1 [11a]; 100.00

Ask: Given the entry COc1cc(Cl)ccc1Nc1c(C#N)cnc2cc(OCCON3CCN(C)CC3)c(OC)cc12 [15a] , report its measured Remaining Percentages.
Reply: 100.00

Ask: Field request: Remaining Percentages | item: COc1cc(Nc2c(C#N)cnc3cc(OCCON4CCN(C)CC4)c(OC)cc23)c(F)cc1Cl [8a]
Reply: 100.00

Ask: Name the recorded Remaining Percentages for COc1cc2c(Nc3cccc(OC)c3F)c(C#N)cnc2cc1OCCON1CCN(C)CC1 [13a] .
Reply: 100.00

Ask: State the recorded Remaining Percentages for this entry: COc1cc2c(Nc3cccc(OC)c3Cl)c(C#N)cnc2cc1OCCON1CCN(C)CC1 [12a]
Reply: 100.00

----------
List of IC50 values.
molecular target: cSRC wt (Homo sapiens, UniProt P12931)
Sequence (P12931 whole entry): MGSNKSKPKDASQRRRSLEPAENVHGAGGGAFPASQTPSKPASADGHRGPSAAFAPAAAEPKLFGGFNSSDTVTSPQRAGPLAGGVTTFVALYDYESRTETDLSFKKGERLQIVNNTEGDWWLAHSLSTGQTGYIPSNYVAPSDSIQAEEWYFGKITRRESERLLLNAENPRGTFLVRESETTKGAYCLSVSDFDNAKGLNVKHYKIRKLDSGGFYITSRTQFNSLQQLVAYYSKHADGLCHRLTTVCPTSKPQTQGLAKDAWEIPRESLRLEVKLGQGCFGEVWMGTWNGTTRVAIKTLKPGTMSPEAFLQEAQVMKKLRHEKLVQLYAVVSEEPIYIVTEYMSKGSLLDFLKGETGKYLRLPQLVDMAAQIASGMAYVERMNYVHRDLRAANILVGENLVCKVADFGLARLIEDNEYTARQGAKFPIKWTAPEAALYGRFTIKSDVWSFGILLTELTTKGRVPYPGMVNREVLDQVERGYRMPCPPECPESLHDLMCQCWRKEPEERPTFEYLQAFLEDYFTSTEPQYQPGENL
Give your result in nM as a bare value.

Solved entries:
COc1cc(Nc2c(C#N)cnc3cc(OCCON4CCN(C)CC4)c(OC)cc23)c(F)cc1Cl; 2
COc1cc2c(Nc3cccc(OC)c3Cl)c(C#N)cnc2cc1OCCON1CCN(C)CC1 [12a]; 14
COc1cc2c(Nc3cccc(OC)c3F)c(C#N)cnc2cc1OCCON1CCN(C)CC1 [13a]; 34
COc1cc(Cl)ccc1Nc1c(C#N)cnc2cc(OCCON3CCN(C)CC3)c(OC)cc12 [15a]; 11

Now consider the entry below.
Ask: Report IC50 for COc1cc(Nc2c(C#N)cnc3cc(OCCON4CCN(C)CC4)c(OC)cc23)ccc1Cl [14a] please.
Reply: 2

----------
tested on: MDR1; assay: in vitro; conditions: dog, MDCK-MDR1
Measurement kind: efflux ratio

COc1cc2c(Nc3cccc(OC)c3F)c(C#N)cnc2cc1OCCON1CCN(C)CC1 [13a]; 7.3
COc1cc2c(Nc3cccc(OC)c3Cl)c(C#N)cnc2cc1OCCON1CCN(C)CC1 [12a]; 3.1

Ask: Look at this molecule and give its reported efflux ratio. C[C@H]1O[C@@H](O[C@H]2[C@@H](O)C[C@H](O[C@H]3[C@@H](O)C[C@H](O[C@H]4CC[C@@]5(C)[C@H](CC[C@@H]6[C@@H]5C[C@@H](O)[C@]5(C)[C@@H](C7=CC(=O)OC7)CC[C@]65O)C4)O[C@@H]3C)O[C@@H]2C)C[C@H](O)[C@@H]1O [Digoxin, reference compound]
Reply: 22.7

----------
assay: Plasma protein binding by equilibrium dialysis; assay type: in vitro ADME; settings: both sexes, CD-1; mouse plasma; read-out: %Bound (converted)
Listing: fraction unbound of selected molecules
Give only the figure.

COc1cc2c(Nc3cccc(OC)c3Cl)c(C#N)cnc2cc1OCCON1CCN(C)CC1 [12a]; 0.119

Ask: Entry COc1cc(Cl)ccc1Nc1c(C#N)cnc2cc(OCCON3CCN(C)CC3)c(OC)cc12 [15a] : reported fraction unbound = ?
Reply: 0.0971

Cited source: paper PMC11472320
